readout_kind: ΔTm (°C)
Record the value in °C, omitting the unit from your answer.

Request: Form: Entry = `O=c1c(O)c(-c2ccc(O)c(O)c2)oc2cc(O)cc(O)c12` | System = STE20-like serine/threonine-protein kinase (Homo sapiens) (UniProt Q9H2G2) | ΔTm = ____
Result: 5.7

Request: Form: Entry = `C#Cc1cccc(Nc2ncnc3cc(OCCOC)c(OCCOC)cc23)c1` | System = STE20-like serine/threonine-protein kinase (Homo sapiens) (UniProt Q9H2G2) | ΔTm = ____
Result: 8.2

Request: Form: Entry = `N#C/C(=C1/Nc2ccccc2S1)c1ccnc(NCCc2cccnc2)n1` | System = STE20-like serine/threonine-protein kinase (Homo sapiens) (UniProt Q9H2G2) | ΔTm = ____
Result: 1.8

----------
Please go through the items and note down their ΔTm.
Record the value in °C, omitting the unit from your answer.

Request: Form: Entry = COc1ccc2c(c1)/C(=C/c1cnc[nH]1)C(=O)N2 [SU-9516] | System = Mitogen-activated protein kinase 11 (Homo sapiens) | ΔTm = ____
Result: 0.8

Request: Form: Entry = `Ic1cccc(CSc2nnc(-c3ccncc3)o2)c1` | System = Mitogen-activated protein kinase 11 (Homo sapiens) | ΔTm = ____
Result: -0.4

Request: Form: Entry = Oc1cc(O)cc(/C=C/c2ccc(O)c(O)c2)c1 [PICEATANNOL] | System = Mitogen-activated protein kinase 11 (Homo sapiens) | ΔTm = ____
Result: 0.8

----------
# tested_on: Calcium/calmodulin-dependent protein kinase type II subunit delta (Homo sapiens) (UniProt Q13557)
# Sequence (Q13557 whole entry): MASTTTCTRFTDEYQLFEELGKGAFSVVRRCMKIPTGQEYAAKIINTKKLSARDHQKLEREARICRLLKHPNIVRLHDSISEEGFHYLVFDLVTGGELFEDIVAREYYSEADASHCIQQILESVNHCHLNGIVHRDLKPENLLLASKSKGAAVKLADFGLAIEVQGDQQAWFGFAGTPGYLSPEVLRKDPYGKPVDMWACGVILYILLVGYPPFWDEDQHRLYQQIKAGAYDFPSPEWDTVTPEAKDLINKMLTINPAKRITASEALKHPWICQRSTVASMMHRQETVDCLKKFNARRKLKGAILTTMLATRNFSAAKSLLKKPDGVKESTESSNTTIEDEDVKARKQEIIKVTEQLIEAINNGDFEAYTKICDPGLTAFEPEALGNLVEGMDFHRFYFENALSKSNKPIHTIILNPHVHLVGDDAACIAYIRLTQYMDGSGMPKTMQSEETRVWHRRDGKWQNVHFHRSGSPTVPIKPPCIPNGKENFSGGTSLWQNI
Please go through the items and note down their ΔTm.
Write down the value, and be sure its unit follows.

Request: Could you tell me which ΔTm is on file for `N=C(N)NCCNS(=O)(=O)c1cccc2cnccc12` ?
Result: 0.1 °C

Request: Could you tell me which ΔTm is on file for `O=C1C(Cl)=C(N2C(=O)CCC2=O)C(=O)c2ccccc21` ?
Result: -1.5 °C

Request: Could you tell me which ΔTm is on file for `CCN1/C(=C/C(C)=O)Sc2ccc(OC)cc21` ?
Result: -0.6 °C

Request: Could you tell me which ΔTm is on file for `CC(C)(C)n1nc(-c2cccc3ccccc23)c2c(N)ncnc21` ?
Result: -0.1 °C

Request: Could you tell me which ΔTm is on file for `N#C/C(=C(/N)Sc1ccc(N)cc1)c1ccccc1C(F)(F)F` ?
Result: 0.1 °C

Request: Could you tell me which ΔTm is on file for `COc1cc2ncnc(Nc3ccc(F)c(Cl)c3)c2cc1OCCCN1CCOCC1` ?
Result: 0.1 °C

Request: Could you tell me which ΔTm is on file for `Cc1nc(N)sc1-c1ccnc(Nc2cccc([N+](=O)[O-])c2)n1` ?
Result: -0.4 °C

Request: Could you tell me which ΔTm is on file for `O=C1Nc2ccc(I)cc2/C1=C1/Nc2ccccc2/C1=N\O` ?
Result: 3.6 °C

Request: Could you tell me which ΔTm is on file for `C[C@@H](N)[C@H]1CC[C@H](C(=O)Nc2ccncc2)CC1` ?
Result: 0.7 °C

Request: Could you tell me which ΔTm is on file for `Cc1nc(Nc2ncc(C(=O)Nc3c(C)cccc3Cl)s2)cc(N2CCN(CCO)CC2)n1` ?
Result: 0 °C

Request: Could you tell me which ΔTm is on file for `O=c1cc(N2CCOCC2)oc2c(-c3ccccc3)cccc12` ?
Result: 0.4 °C

Request: Could you tell me which ΔTm is on file for `O=Nc1c(-c2c(O)[nH]c3ccccc23)[nH]c2ccccc12` ?
Result: 2.8 °C

Request: Could you tell me which ΔTm is on file for `O=c1cc(N2CCOCC2)oc2c1ccc1ccccc12` ?
Result: -0.2 °C

Request: Could you tell me which ΔTm is on file for `Cc1cc2ncc(-c3ccccc3)nc2cc1C` ?
Result: 0.4 °C

Request: Could you tell me which ΔTm is on file for `Cc1c2ccncc2c(C)c2c1[nH]c1ccccc12` ?
Result: -0.3 °C

Request: Could you tell me which ΔTm is on file for `Cc1nc2sccn2c(=O)c1CCN1CCC(=C(c2ccccc2)c2ccc(F)cc2)CC1` ?
Result: -0.4 °C

Request: Could you tell me which ΔTm is on file for C[S+]([O-])c1ccc(CSc2nc(-c3ccc(F)cc3)c(-c3ccncc3)[nH]2)cc1 (centres undefined) ?
Result: 0 °C

Request: Could you tell me which ΔTm is on file for `CC[C@H](CO)Nc1nc(NCc2ccccc2)c2ncn(C(C)C)c2n1` ?
Result: 0.1 °C

Request: Could you tell me which ΔTm is on file for `CCCCc1c(-c2ccc(O)cc2)[nH]c2nccnc12` ?
Result: 1.8 °C

Request: Could you tell me which ΔTm is on file for `O=S(=O)(c1cccc2c(Cl)cccc12)N1CCCNCC1` ?
Result: 0.5 °C

Request: Could you tell me which ΔTm is on file for `N#CC(C#N)=Cc1ccc(O)c(O)c1` ?
Result: 0.4 °C

Request: Could you tell me which ΔTm is on file for `CCOc1ccc(/C=C2/SC(=O)N(CCN)C2=O)cc1` ?
Result: 0 °C

Request: Could you tell me which ΔTm is on file for `N#C/C(=C\c1ccc(O)c(O)c1)C(=O)NCc1ccccc1` ?
Result: 0.3 °C

Request: Could you tell me which ΔTm is on file for `CN(C)S(=O)(=O)c1ccc2c(c1)/C(=C/c1cc3c([nH]1)CCCC3)C(=O)N2` ?
Result: 3.2 °C

Request: Could you tell me which ΔTm is on file for `O=C1Nc2ccccc2/C1=C/c1cnc[nH]1` ?
Result: -0.3 °C

Request: Could you tell me which ΔTm is on file for `Nc1nc(Nc2ccc(S(N)(=O)=O)cc2)nn1C(=S)Nc1c(F)cccc1F` ?
Result: 0.7 °C

Request: Could you tell me which ΔTm is on file for `O=[N+]([O-])c1ccc(-c2nc(-c3ccc(F)cc3)c(-c3ccncc3)[nH]2)cc1` ?
Result: 0.1 °C

Request: Could you tell me which ΔTm is on file for `NC1=N/C(=C2/CCNC(=O)c3[nH]ccc32)C(=O)N1` ?
Result: 0.1 °C

Request: Could you tell me which ΔTm is on file for `O=c1c2ccccc2[nH]c(=S)n1CCN1CCC(=C(c2ccc(F)cc2)c2ccc(F)cc2)CC1` ?
Result: -5.4 °C
